# ASSAY_INFO: Whole blood stability, mouse
# Assay type: in vitro ADME
# STATED_CONDITIONS: 30 min
METRIC_NAME: Whole Blood Stability % Remaining at 37° C. Mouse (%)

See these solved cases before continuing.
| MOLECULE | NUMERIC_RESULT |
| --- | --- |
| O=C(O)c1ccc([C@H]2c3[nH]c4ccccc4c3C[C@H](C(=O)O)N2C(=O)CCl)cc1 | 86.3 |
| COC(=O)[C@H]1Cc2c([nH]c3ccccc23)[C@H](c2ccc(C(=O)N3CCC(O)CC3)cc2)N1C(=O)CCl | 0.0 |
| COC(=O)[C@H]1Cc2c([nH]c3ccccc23)[C@H](c2ccc(S(=O)(=O)NCC3CC3)cc2)N1C(=O)CCl | 43.1 |

[I] C[C@H]1Cc2c([nH]c3ccccc23)[C@H](c2ccc(C3CCCC3)cc2)N1C(=O)CCl
[II] CN(C)C(=O)[C@H]1Cc2c([nH]c3ccccc23)[C@H](c2ccc(C(=O)OC(C)(C)C)cc2)N1C(=O)CCl
Q. Could you tell me which of these two has the smaller Whole Blood Stability % Remaining at 37° C. Mouse figure? First: I Second: II Respond using the label that marks the chosen record.
A. II
(II: 14.0%, I: 79.2%)

====

# ASSAY_INFO: PK profile, IV plasma concentration and PK parameters
# Assay type: in vivo
# STATED_CONDITIONS: Balb/C nude, mouse, iv, 5 mg/kg, 30% Kolliphore EL with 1% poloxamar 407 in water, read-out: Vss
METRIC_NAME: Vd (L/kg)

| MOLECULE | Vd / L/kg |
| --- | --- |
| CCCC[C@H]1Cc2c([nH]c3ccccc23)[C@H](c2ccc(S(=O)(=O)NC3CC3)cc2F)N1C(=O)CCl [Compound 169] | 0.98 |
| CCCC[C@H]1Cc2c([nH]c3ccccc23)[C@H](c2ccc(NC34CC5CC(CC(C5)C3)C4)cc2)N1C(=O)CCl [Compound 149] | 0.53 |

[1] C[C@H]1Cc2c([nH]c3ccccc23)[C@H](c2ccc(NC34CC5CC(CC(C5)C3)C4)cc2)N1C(=O)CCl [Compound 150]
[2] C#CC(=O)N1[C@@H](CCCC)Cc2c([nH]c3ccccc23)[C@@H]1c1ccc(NC23CC4CC(CC(C4)C2)C3)cc1 [Compound 148]
Q. Could you tell me which of these two has the smaller Vd figure? First: 1 Second: 2 Respond using the label that marks the chosen record.
A. 2

====

# System: MiaPaCa-2
# ASSAY_INFO: Cell viability assay (CellTiter Glo), pancreatic carcinoma MiaPaCa-2
# Assay type: cell-based
# STATED_CONDITIONS: Homo sapiens, MIA PaCa-2; pancreatic carcinoma, 96 hours, CellTiter Glo; read-out: IC50 MiaPaCa-2
METRIC_NAME: IC50 (µM)

[A] COC(=O)[C@H]1Cc2c([nH]c3ccccc23)[C@H](c2ccc(OC(=O)C(C)(C)C)cc2)N1C(=O)CCl
[B] COC(=O)c1ccc([C@H]2c3[nH]c4ccccc4c3C[C@H](C(=O)OC(C)(C)C)N2C(=O)CCl)cc1
Q. IC50 comparison. Which is larger, A or B ? Respond using the label that marks the chosen record.
A. A

[P] COC(=O)[C@H]1Cc2c([nH]c3ccccc23)[C@H](c2ccc(S(=O)(=O)N3CCC(O)CC3)cc2)N1C(=O)CCl
[Q] COC(=O)[C@H]1Cc2c([nH]c3ccccc23)[C@H](c2ccc(C(=O)N(C)C)cc2)N1C(=O)CCl
Q. IC50 comparison. Which is larger, P or Q ? Respond using the label that marks the chosen record.
A. P
(P: 0.117 µM, Q: 0.077 µM)

Sourced from patent US11098040B2
